Where do these numbers come from? They come from patent US20250064941A1.

Below, each entry is listed alongside its reported pKd.
Molecular target: cynomolgus Siglec-2/CD22 (Macaca fascicularis)
Sequence (A0A2K5WCZ6 entry or part of it): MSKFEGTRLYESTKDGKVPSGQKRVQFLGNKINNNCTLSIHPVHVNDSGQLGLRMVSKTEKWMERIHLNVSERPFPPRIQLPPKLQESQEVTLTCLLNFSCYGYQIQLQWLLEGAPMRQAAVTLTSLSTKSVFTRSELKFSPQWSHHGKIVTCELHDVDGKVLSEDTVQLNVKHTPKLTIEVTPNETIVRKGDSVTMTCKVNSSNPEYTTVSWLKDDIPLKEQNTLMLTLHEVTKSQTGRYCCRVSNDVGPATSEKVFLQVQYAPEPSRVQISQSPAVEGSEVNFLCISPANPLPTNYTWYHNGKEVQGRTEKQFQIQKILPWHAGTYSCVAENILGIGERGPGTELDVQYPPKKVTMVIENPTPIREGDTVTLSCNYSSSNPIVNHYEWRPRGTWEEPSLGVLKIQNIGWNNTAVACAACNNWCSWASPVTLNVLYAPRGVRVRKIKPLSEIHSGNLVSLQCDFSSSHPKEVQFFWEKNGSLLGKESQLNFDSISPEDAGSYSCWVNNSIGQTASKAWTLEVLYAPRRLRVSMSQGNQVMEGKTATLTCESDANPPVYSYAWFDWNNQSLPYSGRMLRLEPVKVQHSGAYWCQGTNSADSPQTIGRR
Test: biochemical
Conditions: SPR, steady-state analysis; read-out: Affinity cyno CD22
Protocol: Prior to immobilization, CD22 proteins were treated with SialoExo (Genovis, Cat #G1-SM1-020) for 4 hours at 37° C. to remove native sialic acid residues. […] Binding experiments of Siglec-ligand conjugated proteins or Siglec ligand compounds were performed on the surfaces prepared above in 10 mM HEPES, 150 mM NaCl, 0.05% Tween-20, pH 7.5, 1% DMSO as the running buffer. […] Data was analyzed using steady-state analysis in Biacore Insight Evaluation Software, version 3.0 for Siglec ligand compounds.
pKd: −log10 of the molar value.

**Query** Please indicate pKd recorded for C#CCOCCCCCCO[C@]1(C(=O)O)C[C@H](O)[C@@H](NC(=O)CO)[C@H]([C@H](O)[C@H](O)CNC(=O)Cc2ccc(Cl)c(O)c2)O1
**Result** > 6.00

**Query** Look up and report measured pKd for this entry: C#CCCOc1ccc(CO[C@]2(C(=O)O)C[C@H](O)[C@@H](NC(=O)CO)[C@H]([C@H](O)[C@H](O)CNC(=O)Cc3ccc(NC(C)=O)cc3)O2)cc1
**Result** 5.00 to 6.00

**Query** Tell us which pKd value is on record for C#CCOCCOCCO[C@]1(C(=O)O)C[C@H](O)[C@@H](NC(=O)CO)[C@H]([C@H](O)[C@H](O)CNC(=O)Cc2ccc(-c3cccc(C(=O)NC)c3)cc2)O1
**Result** 5.00 to 6.00

**Query** Report pKd, nothing else, for this compound: CC(=O)NCCOCCOCCOCCOCCC(=O)NCCCCCO[C@]1(C(=O)O)C[C@H](O)[C@@H](NC(=O)CO)[C@H]([C@H](O)[C@H](O)CNC(=O)Cc2ccc(Cl)cc2)O1
**Result** > 6.00

**Query** Give the reported value of pKd for this record: C#CCOCCCCCCO[C@]1(C(=O)O)C[C@H](O)[C@@H](NC(=O)NCCO)[C@H]([C@H](O)[C@H](O)CNC(=O)Cc2ccc(Cl)cc2)O1
**Result** > 6.00

**Query** Consider the compound C#CCOCCOCCO[C@]1(C(=O)O)C[C@H](O)[C@@H](NC(=O)CO)[C@H]([C@@H](F)[C@H](O)CNC(=O)Cc2ccc(-c3ccccc3)cc2)O1 . State its measured pKd.
**Result** < 5.00

**Query** Give pKd for O=C(O)CCCCCCCO[C@]1(C(=O)O)C[C@H](O)[C@@H](NC(=O)CO)[C@H]([C@H](O)[C@H](O)CNC(=O)Cc2ccc(Cl)cc2)O1
**Result** > 6.00

**Query** // Input: C#CCOCCCCCCO[C@]1(C(=O)O)C[C@H](O)[C@@H](NC(=O)CC2CC2)[C@H]([C@H](O)[C@H](O)CNC(=O)Cc2ccc(Cl)cc2)O1 . Output its pKd only.
**Result** 5.00 to 6.00

**Query** Return the recorded pKd value; entry: C#CCCOc1ccc(CO[C@]2(C(=O)O)C[C@H](O)[C@@H](NC(=O)CO)[C@H]([C@H](O)[C@H](O)CNC(=O)Cc3ccc4nc[nH]c4c3)O2)cc1
**Result** 5.00 to 6.00

====

biological target: mouse Siglec-2-Fc-Avi (CD22) (Mus musculus, UniProt P35329); construct: made in house; assay: SPR binding affinity to mouse CD22; details: steady-state analysis
Sequence (P35329 22-708 limits assumed): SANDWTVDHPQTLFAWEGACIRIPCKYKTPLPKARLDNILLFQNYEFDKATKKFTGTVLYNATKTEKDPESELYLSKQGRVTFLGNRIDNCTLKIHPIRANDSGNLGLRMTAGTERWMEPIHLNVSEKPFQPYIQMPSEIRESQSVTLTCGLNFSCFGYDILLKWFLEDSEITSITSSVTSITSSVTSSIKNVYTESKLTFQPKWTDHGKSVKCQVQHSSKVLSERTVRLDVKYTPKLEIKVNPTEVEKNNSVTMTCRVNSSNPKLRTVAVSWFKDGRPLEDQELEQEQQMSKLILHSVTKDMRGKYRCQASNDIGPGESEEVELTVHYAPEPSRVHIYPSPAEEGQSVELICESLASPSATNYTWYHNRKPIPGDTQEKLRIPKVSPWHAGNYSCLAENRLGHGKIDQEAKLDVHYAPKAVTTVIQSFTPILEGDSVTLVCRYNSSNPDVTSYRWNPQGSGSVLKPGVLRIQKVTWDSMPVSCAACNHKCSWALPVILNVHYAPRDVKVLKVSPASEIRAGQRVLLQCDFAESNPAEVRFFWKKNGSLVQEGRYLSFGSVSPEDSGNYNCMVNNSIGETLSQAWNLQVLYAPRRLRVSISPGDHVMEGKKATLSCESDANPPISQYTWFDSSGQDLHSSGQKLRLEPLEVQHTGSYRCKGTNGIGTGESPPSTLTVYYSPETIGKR
Metric name: Kd

{"columns": ["Compound", "Meas value"],
 "data": [
  ["CC(=O)NCCOCCOCCOCCOCCOC(=O)NCCCCCCO[C@]1(C(=O)O)C[C@H](O)[C@@H](NC(C)=O)[C@H]([C@H](O)[C@H](O)CNC(=O)c2cccc(Cl)c2)O1 [Compound 268]", "> 10 µM"],
  ["C#CCN(CC(=O)O)C(=O)CCCO[C@]1(C(=O)O)C[C@H](O)[C@@H](NC(=O)CO)[C@H]([C@H](O)[C@H](O)CNC(=O)Cc2ccc(Cl)cc2)O1 [Compound 101]", "1 to 10 µM"]
]}

Please look at the following compound next.
**Query** Indicate its recorded Kd; the compound in question is C#CCCOCCOCCO[C@]1(C(=O)O)C[C@H](O)[C@@H](NC(=O)CO)[C@H]([C@H](O)[C@H](O)CNC(=O)Cc2ccc(-c3ccc(O)cc3)cc2)O1 [Compound 83]
**Result** 1 to 10 µM

====

molecular target: human Siglec-2/CD22 protein (Homo sapiens, UniProt P20273); assay: SPR binding affinity to human CD22; details: steady-state analysis
pKd: −log10 of the molar value.
Quick reference for pKd among some compounds

Use these answered entries as a reference point.
{"columns": ["Compound", "Measured target", "pKd"],
 "data": [
  ["C#CCCCCCCO[C@]1(C(=O)O)C[C@H](O)[C@@H](NC(=O)CO)[C@H]([C@H](O)[C@H](O)CNC(=O)Cc2ccc(C(F)F)cc2)O1", "human Siglec-2/CD22 protein (Homo sapiens, UniProt P20273)", "> 6.00"],
  ["C#CCOc1ccc(CO[C@]2(C(=O)O)C[C@H](O)[C@@H](NC(=O)CO)[C@H]([C@H](O)[C@H](O)CNC(=O)Cc3ccccc3F)O2)cc1", "human Siglec-2/CD22 protein (Homo sapiens, UniProt P20273)", "> 6.00"],
  ["C#CCCCCCCO[C@]1(C(=O)O)C[C@H](O)[C@@H](NC(=O)CO)[C@H]([C@H](O)[C@H](O)CNC(=O)C(F)(F)c2ccccc2)O1", "human Siglec-2/CD22 protein (Homo sapiens, UniProt P20273)", "> 6.00"],
  ["C#CCCOc1ccc(CO[C@]2(C(=O)O)C[C@H](O)[C@@H](NC(=O)CO)[C@H]([C@H](O)[C@H](O)CN)O2)cc1", "human Siglec-2/CD22 protein (Homo sapiens, UniProt P20273)", "< 5.00"],
  ["C#CCC(NC(=O)CCCO[C@]1(C(=O)O)C[C@H](O)[C@@H](NC(=O)CO)[C@H]([C@H](O)[C@H](O)CNC(=O)Cc2ccc(Cl)cc2)O1)C(=O)O (stereo partly drawn)", "human Siglec-2/CD22 protein (Homo sapiens, UniProt P20273)", "5.00 to 6.00"]
]}

**Query** Return reported pKd for target or system human Siglec-2/CD22 protein (Homo sapiens, UniProt P20273), item CC(=O)NCCOCCOCCOCCOCCC(=O)NCCCCCCO[C@]1(C(=O)O)C[C@H](O)[C@@H](NC(=O)CO)[C@H]([C@H](O)[C@H](O)CNC(=O)Cc2ccc(-c3ccccc3)cc2)O1 .
**Result** > 6.00

====

Listed here are molecules together with their documented Kd.
Molecular target: human Siglec-2/CD22 protein (Homo sapiens)
Sequence (P20273 20-847): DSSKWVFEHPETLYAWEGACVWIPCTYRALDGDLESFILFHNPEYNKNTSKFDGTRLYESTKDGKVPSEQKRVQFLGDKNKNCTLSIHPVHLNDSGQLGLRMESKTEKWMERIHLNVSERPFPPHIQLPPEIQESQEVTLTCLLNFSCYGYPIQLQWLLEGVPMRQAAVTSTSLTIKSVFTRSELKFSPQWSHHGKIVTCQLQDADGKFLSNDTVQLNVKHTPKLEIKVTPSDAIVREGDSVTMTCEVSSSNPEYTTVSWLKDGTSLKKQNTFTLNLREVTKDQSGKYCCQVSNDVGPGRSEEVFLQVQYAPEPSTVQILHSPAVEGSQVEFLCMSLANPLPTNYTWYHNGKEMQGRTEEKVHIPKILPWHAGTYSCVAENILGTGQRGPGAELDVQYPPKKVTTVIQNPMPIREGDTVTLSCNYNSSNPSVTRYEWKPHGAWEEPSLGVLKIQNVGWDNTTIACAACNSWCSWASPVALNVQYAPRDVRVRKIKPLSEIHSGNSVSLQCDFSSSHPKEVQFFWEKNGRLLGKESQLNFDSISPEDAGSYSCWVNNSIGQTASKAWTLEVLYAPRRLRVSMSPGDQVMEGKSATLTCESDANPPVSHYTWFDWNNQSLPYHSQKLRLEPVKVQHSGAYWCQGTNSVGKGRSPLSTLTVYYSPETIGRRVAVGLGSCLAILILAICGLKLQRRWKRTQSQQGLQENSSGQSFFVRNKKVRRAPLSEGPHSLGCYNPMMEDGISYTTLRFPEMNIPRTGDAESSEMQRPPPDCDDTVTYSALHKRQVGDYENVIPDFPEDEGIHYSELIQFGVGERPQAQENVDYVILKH
Test: SPR binding affinity to human CD22
Settings: steady-state analysis

{"columns": ["Molecule", "Meas value"],
 "data": [
  ["C#CCOCCOCCO[C@]1(C(=O)O)C[C@H](O)[C@@H](NC(=O)CO)[C@H]([C@@H](F)[C@H](O)CNC(=O)Cc2ccc(-c3ccccc3)cc2)O1 [Compound 32]", "> 10 µM"],
  ["C#CCOCCOCCO[C@]1(C(=O)O)C[C@H](O)[C@@H](NC(=O)CO)[C@H]([C@H](O)[C@H](O)CNC(=O)Cc2ccc(O)cc2)O1 [Compound 153]", "1 to 10 µM"],
  ["C#CCCOc1ccc(CS[C@]2(C(=O)O)C[C@H](O)[C@@H](NC(=O)CO)[C@H]([C@H](O)[C@H](O)CNC(=O)Cc3cccc(Cl)c3)O2)cc1 [Compound 120]", "< 1 µM"],
  ["C#CCCOc1ccc(CO[C@]2(C(=O)O)C[C@H](O)[C@@H](N)[C@H]([C@H](O)[C@H](O)CNC(=O)Cc3ccc(-c4ccc(O)cc4)cc3)O2)cc1 [Compound 55]", "1 to 10 µM"]
]}

Next molecule, please.
**Query** Determine from records and report Kd for C#CCCOc1ccc(CO[C@]2(C(=O)O)C[C@H](O)[C@@H](NC(=O)CO)[C@H]([C@H](O)[C@H](O)CNC(=O)Cc3cccc(NC(C)=O)c3)O2)cc1 [Compound 164]
**Result** 1 to 10 µM
